Parameter Brain/Blood Ratio 5 min.: see the listing below.
assay: Bioassay: distribution of I-123-labeled compounds in organs of rats after tail vein injection (percent dose/gram, brain/blood ratio); type: in vivo, Female Sprague-Dawley rats; details: 5 minutes post-injection
Number only, no unit.

Please review the following examples before continuing.
compound="CCNCc1ccccc1[123I] [I--123-N--ethyl-o-iodobenzylamine]" value_observed=4.22
compound=[123I]c1ccccc1CCN(CCc1ccccc1)CCc1ccccc1 value_observed=0.24
compound="C[C@@H](N)Cc1ccc([123I])cc1 [I--123-R--p-iodoamphetamine, I-123-R-p-iodoamphetamine]" value_observed=10.60
compound="[123I]c1ccc(NCCc2ccccc2)cc1 [I--123-N--β-phenethyl-p-iodoaniline]" value_observed=1.06
compound="CC(C)NCc1cccc([123I])c1 [I--123-N--isopropyl-m-iodobenzylamine]" value_observed=7.35
compound="CC(C)N[C@@H](C)Cc1ccc([123I])cc1 [I--123-S--N--isopropyl-p-iodoamphetamine, I-123-S-N-isopropyl-p-iodoamphetamine]" value_observed=12.80
compound="Nc1ccc([123I])cc1 [I--123-p-iodoaniline]" value_observed=1.12
compound="CCN(Cc1ccccc1I)Cc1ccccc1[123I] [I--123-N,N--di-o-iodobenzylethylamine]" value_observed=0.68

Specify Brain/Blood Ratio 5 min. for CC(C)Nc1ccccc1[123I] [I--123-N--isopropyl-o-iodoaniline] and stop.
1.13

Specify Brain/Blood Ratio 5 min. for CC(C)N[C@H](C)Cc1ccc([123I])cc1 [I--123-R--N--isopropyl-p-iodoamphetamine, I-123-R-N-isopropyl-p-iodoamphetamine] and stop.
12.60

Specify Brain/Blood Ratio 5 min. for CC1CCC(C)N1Cc1ccccc1[123I] (stereo not drawn) and stop.
3.17

Specify Brain/Blood Ratio 5 min. for CC(C)N(Cc1ccccc1[123I])C(C)C and stop.
5.73

----------
assay: Bioassay: distribution of I-123-labeled compounds in organs of rats after tail vein injection (percent dose/gram, brain/blood ratio); assay type: in vivo, Female Sprague-Dawley rats; details: rat, iv, blood, 5 minutes post-injection, 0.05 to 1.0 mCi, two rats, read-out: Percent Dose/Gram Blood 5 min.
Cut-off 0.4 %ID/g on tissue uptake at 5 min, inclusive. At or above means Condition met; below means Condition not met.

Previously resolved entries follow.
compound=[123I]c1ccc(N(Cc2ccccc2)Cc2ccccc2)cc1 category="Condition met"
compound=CC(C)Nc1ccccc1[123I] category="Condition met"

Consider the record given below.
State whether the measured tissue uptake at 5 min reaches 0.4 %ID/g, counting equality as reaching it, for CC(C)NCc1ccccc1[123I]
Condition not met

----------
experiment: Bioassay: distribution of I-123-labeled compounds in organs of rats after tail vein injection (percent dose/gram, brain/blood ratio); format: in vivo, Female Sprague-Dawley rats; conditions: rat, iv, heart, 5 minutes post-injection, 0.05 to 1.0 mCi, two rats, read-out: Percent Dose/Gram Heart 5 min.
Parameter tissue uptake at 5 min: see the listing below.
Entry rule: numbers only, all in %ID/g.

Please review the following examples before continuing.
molecule=[123I]c1ccccc1CNc1ccccc1 property_measured="tissue uptake at 5 min" value_observed=0.83
molecule="N#CC(Nc1ccccc1)c1ccccc1[123I] (stereo not shown)" property_measured="tissue uptake at 5 min" value_observed=0.9
molecule=[123I]c1ccccc1CNCCc1ccccc1 property_measured="tissue uptake at 5 min" value_observed=0.56
molecule=CCCNCCc1ccccc1[123I] property_measured="tissue uptake at 5 min" value_observed=1.54

Specify tissue uptake at 5 min for CC(C)(C)NCc1ccccc1[123I] and stop.
1.04

Specify tissue uptake at 5 min for CC(C)N(CCc1ccccc1)CCc1ccccc1[123I] and stop.
2.01

Specify tissue uptake at 5 min for Nc1ccc([123I])cc1 and stop.
1.11

Specify tissue uptake at 5 min for Cc1cccc(C)c1NC(=O)CNCCc1ccccc1[123I] and stop.
0.74

Specify tissue uptake at 5 min for NCCc1ccccc1[123I] and stop.
1.22

Specify tissue uptake at 5 min for Nc1ccccc1[123I] and stop.
1.02
